Target: Akt/PKB (Homo sapiens, UniProt P31749)
Sequence (P31749 whole entry): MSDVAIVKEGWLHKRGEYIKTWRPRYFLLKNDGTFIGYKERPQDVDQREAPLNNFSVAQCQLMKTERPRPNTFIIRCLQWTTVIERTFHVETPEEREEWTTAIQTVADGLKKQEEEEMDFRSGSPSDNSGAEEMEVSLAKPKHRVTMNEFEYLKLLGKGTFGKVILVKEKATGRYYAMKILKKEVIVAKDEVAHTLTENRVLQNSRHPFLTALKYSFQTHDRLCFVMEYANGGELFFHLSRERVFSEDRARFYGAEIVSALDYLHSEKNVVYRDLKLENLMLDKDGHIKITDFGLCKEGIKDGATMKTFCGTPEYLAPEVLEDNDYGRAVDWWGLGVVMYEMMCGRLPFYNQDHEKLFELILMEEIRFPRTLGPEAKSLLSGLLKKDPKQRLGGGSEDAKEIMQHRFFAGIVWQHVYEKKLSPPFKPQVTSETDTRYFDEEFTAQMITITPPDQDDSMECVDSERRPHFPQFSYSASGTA
Assay: Luminescence Kinase Glo assay, Akt/PKB
Type: biochemical
Conditions: 150000.0
Non-standard residues stand in square brackets, D forms with d. Residues, ends and D or L forms follow the SMILES beside them. *: point of attachment. PNA(A) = NCCN(CC(=O)*)C(=O)Cn1cnc2c(N)ncnc21; Adenin9ylacetyl = Nc1ncnc2c1ncn2CC(=O)*; N(CH2CH2NHAc)Gly = CC(=O)NCCNCC(=O)O
value.kind: % Inhibition Akt/PKB (%)
Give bare numbers, in %.

CC(=O)NCCN(CC(=O)NCC(=O)N[C@@H](CS)C(=O)N[C@@H](CCCCN)C(=O)NCC(=O)N[C@@H](CCCCN)C(=O)N[C@@H](Cc1ccccc1)C(=O)N[C@@H](CCCCN)C(=O)N[C@@H](CCCNC(=N)N)C(N)=O)C(=O)Cn1cnc2c(N)ncnc21 [Compound 10] (Adenin9ylacetyl-[N(CH2CH2NHAc)Gly]GCKGKFKR-NH2; N-terminus and C-terminus assumed) : 21

Next molecule, please.
The reported Akt/PKB (Homo sapiens, UniProt P31749) % Inhibition Akt/PKB of CC(=O)N[C@@H](CCCCN)C(=O)N[C@@H](CC(C)C)C(=O)N[C@@H](CCCCN)C(=O)N[C@@H](CCCCN)C(=O)N[C@@H](C)C(=O)N[C@@H](CCCCNC(=O)CN(CCN)C(=O)Cn1cnc2c(N)ncnc21)C(=O)N[C@@H](CC(C)C)C(=O)NCC(=O)N[C@@H](CC(C)C)C(N)=O [Compound 9] (Ac-KLKKAK(PNA(A))LGL-NH2; N-terminus and C-terminus assumed) is 7

----------
Provide the reported % Inhibition Akt/PKB of each item.
Target: Akt/PKB (Homo sapiens)
Assay: Luminescence Kinase Glo assay, Akt/PKB
Format: biochemical
Conditions: 150000.0
Marks after values point to notes of the source that are not given here. Residues, ends and D or L forms follow the SMILES beside them. *: point of attachment. PNA(A) = NCCN(CC(=O)*)C(=O)Cn1cnc2c(N)ncnc21

CC(=O)N[C@@H](CCCCN)C(=O)N[C@@H](Cc1ccccc1)C(=O)N[C@@H](CCCNC(=N)N)C(=O)N[C@@H](CCCNC(=N)N)C(=O)N[C@@H](CCCCNC(=O)CN(CCN)C(=O)Cn1cnc2c(N)ncnc21)C(=O)N[C@@H](CC(C)C)C(=O)N[C@@H](CCCNC(=N)N)C(=O)N[C@@H](CC(C)C)C(=O)N[C@@H](CCC(=O)O)C(=O)N[C@H](C(=O)N[C@@H](CC(=O)O)C(N)=O)C(C)C [Compound 6] (Ac-KFRRK(PNA(A))LRLEVD-NH2) : −10* %
CC(=O)N[C@@H](CCCCN)C(=O)N[C@@H](Cc1ccccc1)C(=O)N[C@@H](CCCNC(=N)N)C(=O)N[C@@H](CCCNC(=N)N)C(=O)N[C@@H](CCCCNC(=O)CN(CCN)C(=O)Cn1cnc2c(N)ncnc21)C(=O)N[C@@H](CCCNC(=N)N)C(=O)NCC(=O)N[C@@H](CCCNC(=N)N)C(=O)N[C@@H](CCC(=O)O)C(=O)N[C@H](C(=O)N[C@@H](CC(=O)O)C(N)=O)C(C)C [Compound 5] (Ac-KFRRK(PNA(A))RGREVD-NH2) : −6* %

# ---- query compound ----
CC(=O)N[C@@H](CCCCN)C(=O)N[C@@H](CC(C)C)C(=O)N[C@@H](CCCNC(=N)N)C(=O)N[C@@H](CCCNC(=N)N)C(=O)N[C@@H](C)C(=O)N[C@@H](CCCCNC(=O)CN(CCN)C(=O)Cn1cnc2c(N)ncnc21)C(=O)N[C@@H](CC(C)C)C(=O)NCC(=O)N[C@@H](CC(C)C)C(=O)NCC(=O)N[C@@H](CC(=O)O)C(=O)N[C@@H](CC(=O)O)C(N)=O [Compound 8] (Ac-KLRRAK(PNA(A))LGLGDD-NH2) has a reported % Inhibition Akt/PKB of 0%
